Test system: SF-268 CNS
ASSAY_PROTOCOL: NCI tumour cell line growth inhibition, 48 h
MEASUREMENT_NAME: TGI

Would you please look over these solved cases?
{"MOLECULE": "Cc1nc2nn(Cc3ccccc3)cc2c(=O)o1", "TGI": "> 100 µM"}
{"MOLECULE": "c1ccc(-n2cnnc2-c2nsc3ccccc23)cc1", "TGI": "> 100 µM"}
{"MOLECULE": "C/C1=N\\NC(=O)c2ccccc2C(=O)N/N=C(\\C)c2cccc1n2.O=[N+]([O-])[O-].[Zn+2]", "TGI": "> 100 µM"}
{"MOLECULE": "C=C1CC23CCC4C(C)(C(=O)O)CCCC4(C)C2CCC1C3 (stereo not given)", "TGI": "> 100 µM"}
{"MOLECULE": "CCCCCCCC/C=C\\CCCCCCCC(=O)OC[C@]1(CO)CCC(=O)O1", "TGI": "> 100 µM"}
{"MOLECULE": "Cc1cc(C(=O)N[C@@H](CCC(=O)O)C(=O)O)sc1CC[C@@H]1CNc2nc(N)[nH]c(=O)c2C1", "TGI": "> 100 µM"}

Okay, here is my list. What is TGI for each of these?
1. COc1cc(CNc2nc3cc(N)cc(N)c3nc2-c2ccccc2)cc(OC)c1OC
2. CN(C(=O)[C@@H](NC(=O)OC(C)(C)C)c1ccccc1)[C@H]1CCCC[C@@H]1N1CCCC1
3. Cc1cc(S(=O)(=O)Nc2nc3ccccc3[nH]2)c(S)cc1Cl
4. CC(C)(C)OC(=O)N1CC(Cn2cc(C(F)(F)F)c3c(Cl)ncnc32)C1
5. N#CC(c1ccccc1)N(CCc1ccccc1)C(=O)c1ccccc1 (stereo not given)

# output
14 µM
> 100 µM
> 100 µM
3.4 µM
> 86.5 µM

Okay, here is my list. What is TGI for each of these?
1. CCOC(=O)C1(Br)C(c2ccccc2)NC(=O)N(C2OC(COC(=O)c3ccccc3)C(OC(=O)c3ccccc3)C2OC(=O)c2ccccc2)C1(C)Br (stereo not given)
2. CN(C)c1ccc(/C=C/c2ccnc3ccc4ccccc4c23)cc1
3. COC1/C=C\OC2(C)Oc3c(C)c(O)c4c(O)c(c(/C=N\OCCCc5ccccc5)c(O)c4c3C2=O)NC(=O)/C(C)=C\C=C/C(C)C(O)C(C)C(O)C(C)C(OC(C)=O)C1C (stereo not given)
4. O=[N+]([O-])c1cccc(/C=C/c2ccccn2)c1

# output
["> 100 µM", "> 100 µM", "18.3 µM", "> 100 µM"]

Okay, here is my list. What is TGI for each of these?
1. Nc1ccc(-c2ccc(Nc3cc(S(=O)(=O)O)c(N)c4c3C(=O)c3ccccc3C4=O)cc2)c(S(=O)(=O)O)c1
2. Cc1coc2c1CC1OC1(C)CCC1OC1(C)C2 (stereo not given)
3. CC1C(/C=C/c2ccoc2)ON2CCCC12 (stereo not given)
4. O=C1N[C@H]2C(=O)c3c(Cl)sc(Cl)c3[C@H]2O1
5. N#C/C(=C\c1ccc(F)cc1)c1nc2ccccc2c(=O)[nH]1

# output
> 100 µM
> 100 µM
> 100 µM
22.4 µM
> 100 µM
